- assay-system: human calcium receptor (Homo sapiens, UniProt P41180, R990G)
- Construct: expressed in transfected cells; host or cells: HEK 293
- protocol-notes: increases in [Ca^2+ ]i in HEK-293 cells expressing the human calcium receptor (fura-2 loaded HEK 293/pHuPCaR4.0 cells), % activity
- Assay type: cell-based
- test-conditions: 33 ng/mL
Response key: True means % activity >= 80%; False means % activity < 80%.

input: Could you tell me if the measured % activity of COc1cccc([C@@H](C)NCCCc2cc(F)cc(F)c2)c1 [Compound 24M] reaches 80% or more?
output: True

input: Could you tell me if the measured % activity of CC(NCCC(c1ccccc1)c1ccccc1)c1ccccc1C(F)(F)F (stereo not drawn) [Compound 3D] reaches 80% or more?
output: False

input: Could you tell me if the measured % activity of CCCOc1cccc([C@@H](C)NCCCc2ccccc2Cl)c1 [Compound 21S] reaches 80% or more?
output: True

input: Could you tell me if the measured % activity of CC(COc1ccccc1)NC(C)c1ccccc1 (stereo not drawn) [Compound 5G] reaches 80% or more?
output: False

input: Could you tell me if the measured % activity of Cc1cc(C(C)NC(C)c2cccc3ccccc23)ccc1O (stereo not drawn) [Compound 17W] reaches 80% or more?
output: False

input: Could you tell me if the measured % activity of COc1ccc(CNC(C)c2ccccc2Br)cc1C (stereo not drawn) [Compound 23P] reaches 80% or more?
output: False

input: Could you tell me if the measured % activity of CC(N[C@H](C)c1ccc2ccccc2c1)c1ccc(C(C)(C)C)cc1 (stereo partly drawn) [Compound 13F] reaches 80% or more?
output: True

input: Could you tell me if the measured % activity of COc1ccc(CNC(C)c2cccc3ccccc23)cc1C (stereo not drawn) [Compound 17Z] reaches 80% or more?
output: False

input: Could you tell me if the measured % activity of COc1ccc(CN[C@H](C)c2cccc3ccccc23)cc1F [Compound 16T] reaches 80% or more?
output: True

input: Could you tell me if the measured % activity of Cc1ccc(CN[C@H](C)c2cccc3ccccc23)cc1 [Compound 13P] reaches 80% or more?
output: True

input: Could you tell me if the measured % activity of COc1cc(C)c(CN[C@H](C)c2cccc3ccccc23)cc1C [Compound 16U] reaches 80% or more?
output: False

input: Could you tell me if the measured % activity of Cc1ccccc1C(C)NCCC(c1ccccc1)c1ccccc1 (stereo not drawn) [Compound 3L] reaches 80% or more?
output: False

* * *

- assay-system: human calcium receptor (Homo sapiens, UniProt P41180, R990G)
- Construct: expressed in transfected cells; host or cells: HEK 293
- Sequence (P41180 20-1078 R990G): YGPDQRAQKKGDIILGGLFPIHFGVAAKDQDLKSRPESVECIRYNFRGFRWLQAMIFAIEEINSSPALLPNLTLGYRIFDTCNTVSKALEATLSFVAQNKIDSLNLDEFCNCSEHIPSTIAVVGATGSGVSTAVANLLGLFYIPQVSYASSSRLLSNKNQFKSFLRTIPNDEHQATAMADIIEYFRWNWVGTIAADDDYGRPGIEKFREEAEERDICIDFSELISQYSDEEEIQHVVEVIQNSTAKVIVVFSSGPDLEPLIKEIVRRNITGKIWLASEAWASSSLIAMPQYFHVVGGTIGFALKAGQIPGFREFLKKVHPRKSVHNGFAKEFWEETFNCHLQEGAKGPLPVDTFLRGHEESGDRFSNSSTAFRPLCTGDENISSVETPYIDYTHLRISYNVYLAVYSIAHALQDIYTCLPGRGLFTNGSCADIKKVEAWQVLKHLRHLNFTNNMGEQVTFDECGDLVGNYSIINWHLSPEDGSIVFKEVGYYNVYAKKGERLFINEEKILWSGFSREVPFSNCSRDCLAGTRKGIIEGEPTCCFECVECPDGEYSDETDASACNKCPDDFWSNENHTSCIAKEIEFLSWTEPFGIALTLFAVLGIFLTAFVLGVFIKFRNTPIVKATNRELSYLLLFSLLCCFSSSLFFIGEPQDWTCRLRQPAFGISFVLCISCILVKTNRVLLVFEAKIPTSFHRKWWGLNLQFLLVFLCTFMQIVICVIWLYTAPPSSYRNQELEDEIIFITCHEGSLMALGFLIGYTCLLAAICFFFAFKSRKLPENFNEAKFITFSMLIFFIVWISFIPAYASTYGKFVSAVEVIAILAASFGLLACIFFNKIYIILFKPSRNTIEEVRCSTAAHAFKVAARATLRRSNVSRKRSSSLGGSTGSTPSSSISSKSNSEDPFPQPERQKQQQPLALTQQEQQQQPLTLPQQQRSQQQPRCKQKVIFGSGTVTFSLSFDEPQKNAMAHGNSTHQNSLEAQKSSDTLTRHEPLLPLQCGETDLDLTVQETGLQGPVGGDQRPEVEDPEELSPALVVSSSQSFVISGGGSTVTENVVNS
- protocol-notes: increases in [Ca^2+ ]i in HEK-293 cells expressing the human calcium receptor (fura-2 loaded HEK 293/pHuPCaR4.0 cells), % activity
- Assay type: cell-based
- test-conditions: 3300 ng/mL
quantity: % activity (%)
The answer is to be given in %; state only the numeric part.

input: Entry COc1ccc(CNC(C)c2cccc(C(F)(F)F)c2)cc1C (stereo not drawn) [Compound 24C] has what % activity?
output: 116

input: Entry CC(C)Oc1cccc([C@@H](C)NCCCc2ccccc2Cl)c1 [Compound 21T] has what % activity?
output: 133

input: Entry COc1cccc([C@@H](C)NC2Cc3ccccc3C2)c1 [Compound 25P] has what % activity?
output: 90
